B1: glmS ribozyme (parent)
chain: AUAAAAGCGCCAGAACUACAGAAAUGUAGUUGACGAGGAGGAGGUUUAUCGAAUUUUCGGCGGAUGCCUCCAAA

- Variants of: B1
- ASSAY_OVERVIEW: self-cleavage kobs at 40 uM GlcN6P; higher = faster cleavage; RNA array
- CONDITIONS_USED: with glucosamine-6-phosphate
Variants at the floor of the assay were thinned out.
REPORTED_ENDPOINT: self-cleavage kobs at 40 uM GlcN6P (s⁻¹)
The reply should contain only the number, in s⁻¹.

U30C U69G | 3.65e-05

# evaluate next
q: Requested field: self-cleavage kobs at 40 uM GlcN6P. Item: A72C
a: 0.000372
